target-or-test-system: human PAD4 (hPAD4) (Homo sapiens, UniProt Q9UM07)
Sequence (Q9UM07 whole entry): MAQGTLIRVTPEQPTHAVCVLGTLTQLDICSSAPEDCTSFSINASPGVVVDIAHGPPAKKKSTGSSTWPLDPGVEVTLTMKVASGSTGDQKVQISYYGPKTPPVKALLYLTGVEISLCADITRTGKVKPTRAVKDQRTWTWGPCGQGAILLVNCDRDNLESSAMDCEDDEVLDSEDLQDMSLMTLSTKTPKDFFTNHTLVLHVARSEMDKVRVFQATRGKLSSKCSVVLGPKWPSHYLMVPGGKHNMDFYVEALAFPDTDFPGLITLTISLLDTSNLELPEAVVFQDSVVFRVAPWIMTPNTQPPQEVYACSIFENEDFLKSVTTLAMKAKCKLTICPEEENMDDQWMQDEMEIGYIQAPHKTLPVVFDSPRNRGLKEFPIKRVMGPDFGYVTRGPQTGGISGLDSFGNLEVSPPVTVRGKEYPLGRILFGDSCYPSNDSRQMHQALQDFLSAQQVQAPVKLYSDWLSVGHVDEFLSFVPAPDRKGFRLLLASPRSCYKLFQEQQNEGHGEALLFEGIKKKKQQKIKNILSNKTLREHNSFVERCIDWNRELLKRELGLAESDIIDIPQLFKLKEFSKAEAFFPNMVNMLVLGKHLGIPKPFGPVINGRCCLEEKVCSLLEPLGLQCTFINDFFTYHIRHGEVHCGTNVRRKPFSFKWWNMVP
method: RFMS human PAD4 functional assay (rapid-fire mass spectrum)
measurement-parameters: 5 nM hPAD4 enzyme, 250 μM BAEE, 50 μM Calcium; 30 min preincubation, 90 min reaction at 37° C.
property: IC50 (nM)

| molecule | IC50, nM |
| --- | --- |
| COc1ccc2cc(-c3nc4cc(C(=O)N5C[C@H]6CC[C@@H]5[C@@H]6N)cc(OC)c4n3CC3CN(c4cccnc4C#N)C3)n(CC3CC3)c2n1 | 90 |
| COc1cc(C(=O)N2C[C@H]3CC[C@@H]2[C@@H]3N)cc2nc(-c3cc4cccnc4n3CC3CC3)n(CC3CN(c4cccnc4C#N)C3)c12 | 92 |
| N#Cc1ccc(C(=O)N2CC(Cn3c(-c4cc5cccnc5n4CC4CC4)nc4cc(C(=O)N5C[C@H]6CC[C@@H]5[C@@H]6N)cc(Cl)c43)C2)cc1 | 83 |
| Cc1cc(C(=O)N2CC3CCC2[C@@H]3N)cc2nc(-c3cc4ccccc4n3CC3CC3)n(CC3CN(C(=O)c4ccc(C#N)cc4)C3)c12 (some centres unmarked) | 44 |

(a) COc1cc(C(=O)N2C[C@H]3CC[C@@H]2[C@@H]3N)cc2nc(-c3cc4cccnc4n3CC3CC3)n(CC3CN(C(=O)c4cc[nH]c(=O)c4)C3)c12
(b) COc1cc(C(=O)N2C[C@H](N)C[C@@H](F)C2)cc2nc(-c3cc4ccccc4n3CC3CC3)n(CC3(F)CN(C(=O)c4ccccc4)C3)c12
(c) CCCC(=O)N1CC(Cn2c(-c3cc4cccnc4n3CC3CC3)nc3cc(C(=O)N4C[C@H]5CC[C@@H]4[C@@H]5N)cc(OC)c32)C1
(d) COc1cc(C(=O)N2CC3CCC2[C@@H]3N)cc2nc(-c3cc4cccnc4n3CC3CC3)n(Cc3ccnn3C)c12 (some centres unmarked)
List the 4 entries from lowest IC50 to highest IC50 value. Lab note: final answer is the ordered label list. b, c, d, a

(A) COc1cc(C(=O)N2C[C@H]3CC[C@@H]2[C@@H]3N)cc2nc(-c3cc4cccnc4n3CC3CC3)n(CC3CN(c4ccnc(C)c4)C3)c12
(B) COc1cc(C(=O)N2CC3CCC2[C@@H]3N)cc2nc(-c3cc4cccnc4n3CC3CC3)n(C[C@@H]3CCN(c4ccnc(C#N)n4)C3)c12 (some centres unmarked)
Lower value for measured IC50? Options: A , B I would appreciate it if you answered with the label of your choice. B
(B: 37 nM, A: 152 nM)

* * *

target-or-test-system: UniProt Q9UM07
method: RFMS human PAD4 functional assay (rapid-fire mass spectrum)
measurement-parameters: 5 nM hPAD4 enzyme, 250 μM BAEE, 50 μM Calcium; 30 min preincubation, 90 min reaction at 37° C.
property: IC50 (µM)

| record-smiles | IC50, µM |
| --- | --- |
| COc1cc(C(=O)N2C[C@H]3CC[C@@H]2[C@@H]3N)cc2nc(-c3cc4cccnc4n3CC3CC3)n(C3CN(S(=O)(=O)CC4CC4)C3)c12 | 0.19 |

(a) COc1cc(C(=O)N2C[C@H]3CC[C@@H]2[C@@H]3N)cc2nc(-c3cc4cccnc4n3CC3CC3)n(CC3CN(S(=O)(=O)C(C)C)C3)c12
(b) COc1cc(C(=O)N2C[C@H](N)C[C@@H](F)C2)cc2nc(-c3cc4cccnc4n3CC3CC3)n(Cc3cn[nH]c3)c12
Lower value for measured IC50? Options: a , b I would appreciate it if you answered with the label of your choice. b
(b: 0.127 µM, a: 0.245 µM)

* * *

target-or-test-system: human PAD4 (hPAD4) (Homo sapiens)
method: RFMS human PAD4 functional assay (rapid-fire mass spectrum)
Format: biochemical
measurement-parameters: 5 nM hPAD4 enzyme, 250 μM BAEE, 50 μM Calcium; 30 min preincubation, 90 min reaction at 37° C.
pIC50: −log10 of the molar value.
property: pIC50

Example entries begin here.
| compound | measured-value |
| --- | --- |
| COc1cc(C(=O)N2CC3CCC2[C@@H]3N)cc2nc(-c3cc4ccccc4n3CC3CC3)n(CC3CN(C(=O)c4cncnc4)C3)c12 (some centres unmarked) | 7.38 |
| COc1cc(C(=O)N2CC3CCC2[C@@H]3N)cc2nc(-c3csc4ccc(Cl)cc34)n(CC3CN(c4cncc(C#N)c4)C3)c12 (some centres unmarked) | 5.94 |
| COc1cc(C(=O)N2CC3CCC2[C@@H]3N)cc2nc(-c3cc4ccccc4n3CC3CC3)n(Cc3cnn(-c4cncc(C#N)c4)c3)c12 (some centres unmarked) | 7.74 |
| COc1cc(C(=O)N2CC3CCC2[C@@H]3N)cc2nc(-c3cc4ccccc4n3CC3CC3)n(CC3CN(C(=O)c4cnccn4)C3)c12 (some centres unmarked) | 7.47 |
| COc1cc(C(=O)N2CC3CCC2[C@@H]3N)cc2nc(-c3cc4ccccc4n3CC3CC3)n(Cc3cnn(-c4cccc(O)n4)c3)c12 (some centres unmarked) | 7.37 |

(a) N[C@@H]1C2CCC1N(C(=O)c1ccc3c(c1)nc(-c1cc4ccccc4n1CC1CC1)n3CC1CN(C(=O)c3ccccc3)C1)C2 (some centres unmarked)
(b) COc1cc(C(=O)N2CC3CCC2[C@@H]3N)cc2nc(-c3cc4ccccc4n3CC3CC3)n(CC3CN(C(=O)c4ccc(C(F)(F)F)cc4)C3)c12 (some centres unmarked)
(c) COc1cc(C(=O)N2C[C@H]3CC[C@@H]2[C@@H]3N)cc2nc(-c3cc4cccnc4n3CC3CC3)n(C[C@@H]3CCN(c4cncc(C#N)n4)C3)c12
Rank by pIC50 (largest to smallest). Lab note: final answer is the ordered label list. b, a, c

* * *

target-or-test-system: human PAD4 (hPAD4) (Homo sapiens, UniProt Q9UM07)
method: RFMS human PAD4 functional assay (rapid-fire mass spectrum)
Format: biochemical
measurement-parameters: 5 nM hPAD4 enzyme, 250 μM BAEE, 50 μM Calcium; 30 min preincubation, 90 min reaction at 37° C.
pIC50: −log10 of the molar value.
property: pIC50

| molecule | measured-value |
| --- | --- |
| COc1cc(C(=O)N2C[C@H]3CC[C@@H]2[C@@H]3N)cc2nc(-c3cc4cccnc4n3C)n(CC3CN(c4ccnc(C#N)n4)C3)c12 | 7.14 |
| COc1cc(C(=O)N2C[C@H](N)C[C@@H](F)C2)cc2nc(-c3cc4cccnc4n3CC3CC3)n(Cc3cnn(-c4cccn(C)c4=O)c3)c12 | 7.01 |
| COc1cc(C(=O)N2CC3CCC2[C@@H]3N)cc2nc(-c3cc4ccccc4n3CC3CC3)n(CC3CN(C(=O)c4cccs4)C3)c12 (stereo partly drawn) | 7.20 |

* * *

target-or-test-system: human PAD4 (hPAD4) (Homo sapiens, UniProt Q9UM07)
method: RFMS human PAD4 functional assay (rapid-fire mass spectrum)
measurement-parameters: 5 nM hPAD4 enzyme, 250 μM BAEE, 50 μM Calcium; 30 min preincubation, 90 min reaction at 37° C.
property: IC50 (nM)

Example entries begin here.
| compound | units-text | measured-value |
| --- | --- | --- |
| COc1cc(C(=O)N2C[C@H]3CC[C@@H]2[C@@H]3N)cc2nc(-c3cc4cccnc4n3C)n(C[C@H]3CCN(c4ccnc(C5CC5)n4)C3)c12 [Example 209] | nM | 61 |
| COc1cc(C(=O)N2CC3CCC2[C@@H]3N)cc2nc(-c3cc4ccccc4n3CC3CC3)n(Cc3cnn(-c4cnc(O)c(F)c4)c3)c12 (stereo partly drawn) [Example 357] | nM | 23 |
| COc1cc(C(=O)N2C[C@H]3CC[C@@H]2[C@@H]3N)cc2nc(-c3cc4ccccc4n3CC3CC3)n(CC3CN(C(=O)c4cccc(Cl)c4)C3)c12 [Example 154] | nM | 21 |
| COc1cc(C(=O)N2C[C@H]3CC[C@@H]2[C@@H]3N)cc2nc(-c3cc4ccccc4n3CC3CC3)n(Cc3cc(C)nn3C)c12 [Example 252] | nM | 22 |

(P) COc1cc(C(=O)N2CC3CCC2[C@@H]3N)cc2nc(-c3cc4ccccc4n3CC3CC3)n(CC3CN(C(=O)c4cc[n+]([O-])cc4)C3)c12 (stereo partly drawn) [Example 461]
(Q) COc1cc(C(=O)N2C[C@H]3CC[C@@H]2[C@@H]3N)cc2nc(-c3cc4cccnc4n3C)n(CC3CN(c4cncc(C#N)n4)C3)c12 [Example 40]
(R) COc1cc(C(=O)N2CC3CCC2[C@@H]3N)cc2nc(-c3cc4ccccc4n3CC3CC3)n(CC3CN(C(=O)c4ccnc(Cl)c4)C3)c12 (stereo partly drawn) [Example 424]
Rank by IC50 (largest to smallest). Lab note: final answer is the ordered label list. Q, P, R
(Q: 98 nM, P: 68 nM, R: 25 nM)
